Biological target: HTRA2, O43464
Sequence (O43464 355-458): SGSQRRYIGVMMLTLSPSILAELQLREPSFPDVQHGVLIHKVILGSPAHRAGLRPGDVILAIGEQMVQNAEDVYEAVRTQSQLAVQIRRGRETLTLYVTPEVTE
Assay: holdup assay
Design: key: below the threshold = too weak to quantify, mostly under pKd 3.1 to 4
Conditions: plain residues with an end cap or a label only (N-terminal biotin on a linker: ado-ado)
READOUT_TYPE: pKd

* EFKQTSSFLV [JAM1, Q9Y624] | 3.78
* NSTHNLKDYV [CLDN20, P56880] | below the threshold
* TFSRRPKTRV [CD226, Q15762] | below the threshold
* RGKNRRQSIF [CDK18, Q07002] | below the threshold
